# protocol.summary: Clearance in ICR mouse at 10 mg/kg, iv measured after 1440 mins by HPLC analysis
# Type: ADME, organism-based
# study.conditions: in vivo
measured.endpoint: clearance (L/h/kg)
Please respond with the number in L/h/kg and leave the unit unwritten.

Looking up CS(=O)(=O)c1nc(Nc2ccc(F)c(Cl)c2)cc(N2CCNCC2)n1.Cl , I see its clearance listed as 4.25

---

Kindly supply the reported log(permeability) values for the records listed here.
# protocol.summary: Permeability of the compound at pH 7.4 by PAMPA
# Assay type: ADME
Lab note: jot down the number only; don't add units.

Looking up COc1ncccc1C(=O)NCCNc1cc(Nc2ccc(N3CCOCC3)cc2)nc([S+](C)[O-])n1 (stereo not given) , I see its log(permeability) listed as -5.47

Looking up CS(=O)(=O)c1nc(Nc2ccc(F)c(Cl)c2)cc(N2CCNCC2)n1 , I see its log(permeability) listed as -5.37

Looking up CS(=O)(=O)c1nc(Nc2ccc(F)c(Cl)c2)cc(NC2CCNCC2)n1 , I see its log(permeability) listed as -5.46

Looking up CS(=O)(=O)c1nc(Nc2ccc(F)c(Cl)c2)cc(NC2CCC(N)CC2)n1 (stereo not given) , I see its log(permeability) listed as -5.15
